Source: ChEMBL document CHEMBL1201862

Please provide measured GI50 for the entries that follow.
system: Malme-3M; assay: NCI tumour cell line growth inhibition, 48 h
Activity calls are given as the source filed them. Cut-off read from the data, not from the text of the source: active = GI50 up to about 1.1 µM and inactive = higher.

The following compounds have reported results that may help.
1. COc1ccc(C2C3=C(COC3=O)OC(C)(C)Oc3cc4c(cc32)OCO4)cc1 (centres undefined) = 17.7 µM (inactive)
2. CC1(C)COC2=C(C1)C(=O)c1ccccc1C2=O = 1.88 µM (inactive)

For every listed record, write down its GI50.
1. Cc1ccc(NC(=O)OCC(COc2ccc(Cl)cc2)OC(=O)Nc2ccc(C)cc2)cc1 (centres undefined)
2. Cc1ccc(S(=O)(=O)SC(C)(C)C)cc1
3. COC(=O)c1ccc(Nc2nc3[nH]cnc3c(=O)[nH]2)cc1
4. Nc1nc(-[n+]2ccc(-c3ccncc3)cc2)nc(Cl)c1Cl

### Response
1: 19 µM (inactive); 2: > 44.4 µM (inactive); 3: > 100 µM (inactive); 4: 34.9 µM (inactive)

For every listed record, write down its GI50.
1. C=CCCC1(CCP(=O)(c2ccccc2)c2ccccc2)OCCO1
2. CC12CC(c3ccccc3O1)C(C(=O)Nc1ccc(Cl)cc1Cl)C(=O)N2 (centres undefined)
3. Cn1c(=O)nc2n(-c3ccc(Cl)cc3)c(-c3ccccc3)c(-c3ccccc3)nc-2c1=O

### Response
1. > 100 µM (inactive)
2. 39 µM (inactive)
3. 28.4 µM (inactive)

====

Please provide measured GI50 for the entries that follow.
test system: 786-0; assay: NCI tumour cell line growth inhibition, 48 h
Calls of active or inactive are those of the source. Cut-off read from the data, not from the text of the source: active = GI50 up to about 1.1 µM and inactive = higher.

For every listed record, write down its GI50.
1. CCOC12SC(Nc3ccc(C)cc3)=NN1C(=S)N(C)N=C2C (configuration not stated)
2. O=c1[nH]c2cc([N+](=O)[O-])c(N/N=C/c3ccc(Cl)cc3Cl)c([N+](=O)[O-])c2[nH]1
3. N#C/N=C1\NCCC(=O)N1CCc1c[nH]c2ccccc12
4. N#Cc1c2c(c(N=[N+]=[N-])n3c1nc1ccccc13)CCCC2
5. CNc1nnnn1C1OC(CO)C(O)C1O (configuration not stated)
6. O=C1C(Cl)C2(CC(/C=C/c3ccccc3)=NN2c2cccc(S(=O)(=O)O)c2)N1c1nc2ccccc2s1 (configuration not stated)
7. COc1cc(/C=C2\N=C(c3ccccc3)N(c3cc4cc(Sc5ccccc5)ccc4[nH]3)C2=O)cc(OC)c1OC

### Response
1. > 100 µM (inactive)
2. 32.1 µM (inactive)
3. > 100 µM (inactive)
4. 1.9 µM (inactive)
5. > 100 µM (inactive)
6. 17.3 µM (inactive)
7. 12.6 µM (inactive)

====

test system: CCRF-CEM; test: NCI tumour cell line growth inhibition, 48 h
Active and inactive are the calls of the source. No stated cut-off is given here; in the data, active = GI50 up to about 1.1 µM and inactive = higher.
endpoint_name: GI50

The following compounds have reported results that may help.
1. CC[S+](C)c1ccc(-c2c3nc(c(-c4ccc([S+](C)CC)cc4)c4ccc([nH]4)c(-c4ccc([S+](C)CC)cc4)c4nc(c(-c5ccc([S+](C)CC)cc5)c5ccc2[nH]5)C=C4)C=C3)cc1.[O-][Cl+3]([O-])([O-])[O-].[O-][Cl+3]([O-])([O-])[O-].[O-][Cl+3]([O-])([O-])[O-].[O-][Cl+3]([O-])([O-])[O-] (stereo not drawn) = 18.9 µM (inactive)
2. [O-][S+](CCc1ccccc1)Nc1ccccc1 (stereo not drawn) = > 100 µM (inactive)
3. COC(=O)NN=C(c1ccc(Cl)cc1)c1ccc(Cl)cc1 = 67.6 µM (inactive)
4. Cc1ccc(S(=O)(=O)SC(C)(C)C)cc1 = 12.6 µM (inactive)
5. COC(=O)c1ccc(Nc2nc3[nH]cnc3c(=O)[nH]2)cc1 = > 100 µM (inactive)

For every listed record, write down its GI50.
1. CCC(/C=C/c1ccccc1)=N\N=C(\C=C\c1ccccc1)CC
2. CCOc1ccc2[nH]c3c(C)c4cc[n+](C)cc4c(C)c3c2c1
3. COC(=O)[C@H]1[C@H]2C[C@@H]3c4[nH]c5cc(OC)ccc5c4CCN3C[C@H]2C[C@@H](OC(=O)c2cc(OC)c(OC)c(OC)c2)[C@@H]1OC [RESERPINE]
4. C[C@@H]1CC[C@H]2[C@H]1[C@H]1[C@@H](CC[C@]2(C)N=C=S)C1(C)C
5. N#C/N=C1\NCCC(=O)N1CCc1c[nH]c2ccccc12
6. CC(=O)N[C@@H](Cc1ccc(O)cn1)C(=O)NCc1cccc(F)c1

### Response
> 100 µM (inactive)
2.88 µM (inactive)
13.2 µM (inactive)
13.3 µM (inactive)
> 100 µM (inactive)
> 100 µM (inactive)

For every listed record, write down its GI50.
1. O=c1[nH]c2ccc(C(F)(F)F)cc2nc1Cc1ccccc1
2. COc1nc(C)nc2c1ncn2Cc1ccccc1
3. COc1cc2c(c3c1c(=O)c1ccccc1n3C)C=CC(C)(C)O2 [ACRONINE]
4. OC(CC(O)(C(F)(F)Cl)C(F)(F)Cl)c1ccccc1 (stereo not drawn)
5. C[C@H](C(=O)N1C(=O)O[C@@H](c2ccccc2)[C@H]1C)[C@H](c1ccccc1)N(Cc1ccccc1)OC(=O)c1ccccc1

### Response
["29.4 µM (inactive)", "> 100 µM (inactive)", "79.1 µM (inactive)", "> 10 µM (inactive)", "37.2 µM (inactive)"]

For every listed record, write down its GI50.
1. N/N=c1\c2ccccc2c2cc3c(cc12)/c(=N/N)c1ccccc13
2. CCOC12SC(Nc3ccc(C)cc3)=NN1C(=S)N(C)N=C2C (stereo not drawn)

### Response
1. > 100 µM (inactive)
2. > 100 µM (inactive)
